PROCEDURE SUMMARY: blockers of STAT3 transcriptional signaling – U3A cells, luciferase, luminescence, MLSCN library, primary screen (AID 862)
CONDITION SET: IL-6 STAT3-luciferase reporter, at 5.5 µM, host cell line lacks STAT1
Screen size: about 190,000 compounds; about 1,700 (0.89%) were called active.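 How the source made its calls: active means inhibition above the mean inhibition across all screened compounds plus 3 SD (cut at about 44% in these data); inactive means the rest.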 Only a selection was taken, and actives are over-represented in it overall.
Labels: active, inactive

compound=CCOc1cc(/C=C(/C#N)c2ccc(Cl)cc2)cc(Cl)c1OCC(=O)O assigned_class=active
compound=Cc1ccc(-c2nnc(-c3ccc(NC(=O)c4cccs4)cc3)o2)cc1 assigned_class=inactive
compound=CCOc1c(Cl)cc(/C=N/O)cc1OC assigned_class=inactive
compound=O=c1oc(/C=C/c2ccccc2)nc2ccccc12 assigned_class=active
compound=CCOC(=O)CN/C=C(\C#N)c1ccc(F)cc1 assigned_class=inactive
compound=Cc1ccc(OCCCn2c(=O)oc3ccccc32)cc1 assigned_class=inactive
compound="CCC(C)CN1CCC(CO)(Cc2ccccc2Cl)CC1 (configuration not stated)" assigned_class=inactive
